- testSystem: TRPV4 channel receptor (Homo sapiens)
- Sequence (Q9HBA0 whole entry): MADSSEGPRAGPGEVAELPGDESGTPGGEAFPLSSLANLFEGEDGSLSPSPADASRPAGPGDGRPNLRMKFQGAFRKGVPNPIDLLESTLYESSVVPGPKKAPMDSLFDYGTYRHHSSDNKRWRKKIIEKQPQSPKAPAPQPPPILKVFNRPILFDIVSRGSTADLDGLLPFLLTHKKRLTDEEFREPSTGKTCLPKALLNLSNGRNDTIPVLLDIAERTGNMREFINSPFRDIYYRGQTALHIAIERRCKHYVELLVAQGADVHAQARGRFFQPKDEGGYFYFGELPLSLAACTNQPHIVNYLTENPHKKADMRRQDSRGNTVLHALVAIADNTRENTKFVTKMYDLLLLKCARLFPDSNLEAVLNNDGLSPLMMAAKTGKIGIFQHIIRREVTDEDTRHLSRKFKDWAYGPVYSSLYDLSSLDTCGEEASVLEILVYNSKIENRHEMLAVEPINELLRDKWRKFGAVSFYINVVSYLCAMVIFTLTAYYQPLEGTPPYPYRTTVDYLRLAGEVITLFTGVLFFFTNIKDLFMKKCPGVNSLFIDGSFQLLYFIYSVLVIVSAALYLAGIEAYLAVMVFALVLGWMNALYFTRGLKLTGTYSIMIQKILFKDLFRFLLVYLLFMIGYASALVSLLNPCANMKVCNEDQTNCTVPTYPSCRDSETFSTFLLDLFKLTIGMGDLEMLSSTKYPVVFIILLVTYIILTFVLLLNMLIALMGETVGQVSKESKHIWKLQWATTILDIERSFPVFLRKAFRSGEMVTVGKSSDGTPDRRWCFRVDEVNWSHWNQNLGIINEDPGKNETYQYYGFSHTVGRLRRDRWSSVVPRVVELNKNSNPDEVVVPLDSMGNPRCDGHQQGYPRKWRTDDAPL
- assayMethodText: Ca2+ influx in human articular chondrocytes (FlexStation)
- conditionParameters: HAC EC50, human articular chondrocytes; N = 2
measuredAttribute: pEC50
pEC50 is defined as minus the log10 of a concentration measured in mol/L.

Sample CC(C)C[C@H](NC(=O)c1cc2ccccc2s1)C(=O)NCCCN(C)S(=O)(=O)c1ccc(Cl)cc1Cl ; pEC50 observed: 6.60

----------
- testSystem: TRPV4 channel receptor (Homo sapiens)
- assayMethodText: Intracellular calcium (FLIPR, Fluo-3) in HEK293 cells transfected with human TRPV4 channel receptor
- Format: cell-based
- Set-up: V5-His (from the vector's name only); expressed in transfected cells; host or cells: HEK293
- conditionParameters: intracellular calcium; mean ± s.e.mean, n = 3-5
Each record here notes measured pEC50 TRPVR4.
Give the figure only, with no unit attached.

molecule="CCCCCCCCCC(=O)O[C@@H]1[C@@H](C)[C@@]2(O)[C@@H](C=C(CO)C[C@@]3(O)C(=O)C(C)=C[C@@H]23)[C@@H]2C(C)(C)[C@]12OC(=O)CCCCCCCCC [Formula 4αPDD, 4α-phorbol-12,13-didecanoate]" measuredattribute="pEC50 TRPVR4" observedmeasurement=5.73

The molecule listed as CCCCCCCCCCCCCC(=O)O[C@@H]1[C@@H](C)[C@@]2(O)[C@@H](C=C(CO)C[C@]3(O)C(=O)C(C)=C[C@@H]23)[C@@H]2C(C)(C)[C@]12OC(C)=O [PMA, phorbol 12-myristate 13-acetate] has a reported pEC50 TRPVR4 of 6.64

----------
- Tested on: bovine articular cartilage explants
- assayMethodText: IL-1 induced aggrecan degradation (GAG release, DMMB) in bovine articular cartilage explants
- Format: cell-based
- conditionParameters: Bos taurus; IL-1-stimulated bovine cartilage
- Description: Articular cartilage explants isolated from newborn calves at slaughter were placed in culture, and aggrecan degradation was initiated through stimulation with IL-1. Since aggrecan degradation in this model is believed to be mediated by aggrecanase, TRPV4 channel receptor agonists that are active in the chondrocyte-based aggrecanase peptide assay (Example 11) may also be effective inhibitors in the cartilage explant assay, presumably by blocking aggrecanase production in these tissues. […]
measuredAttribute: pIC50
Conceptually, pIC50 converts a concentration in mol/L into minus its log10.

Solved entries (count: 2):
structuresmilesstring=CC(C)C[C@H](NC(=O)c1cc2ccccc2n1C)C(=O)N[C@@H]1CCCN(S(=O)(=O)c2ccccc2C#N)CC1 measuredattribute=pIC50 observedmeasurement=6.70
structuresmilesstring=CC(C)C[C@H](NC(=O)c1cc2ccccc2s1)C(=O)NCCCN(C)S(=O)(=O)c1ccccc1C#N measuredattribute=pIC50 observedmeasurement=6.40

The measured pIC50 associated with CC(C)C[C@H](NC(=O)c1cc2ccccc2s1)C(=O)N[C@@H]1CCCN(S(=O)(=O)c2ccccc2C#N)CC1=O reads 8.00

----------
- testSystem: TRPV4 channel receptor (Bos taurus, UniProt A0A8F4X677)
- Construct: endogenous in cells; host or cells: bovine articular chondrocytes
- Sequence (A0A8F4X677 1-871): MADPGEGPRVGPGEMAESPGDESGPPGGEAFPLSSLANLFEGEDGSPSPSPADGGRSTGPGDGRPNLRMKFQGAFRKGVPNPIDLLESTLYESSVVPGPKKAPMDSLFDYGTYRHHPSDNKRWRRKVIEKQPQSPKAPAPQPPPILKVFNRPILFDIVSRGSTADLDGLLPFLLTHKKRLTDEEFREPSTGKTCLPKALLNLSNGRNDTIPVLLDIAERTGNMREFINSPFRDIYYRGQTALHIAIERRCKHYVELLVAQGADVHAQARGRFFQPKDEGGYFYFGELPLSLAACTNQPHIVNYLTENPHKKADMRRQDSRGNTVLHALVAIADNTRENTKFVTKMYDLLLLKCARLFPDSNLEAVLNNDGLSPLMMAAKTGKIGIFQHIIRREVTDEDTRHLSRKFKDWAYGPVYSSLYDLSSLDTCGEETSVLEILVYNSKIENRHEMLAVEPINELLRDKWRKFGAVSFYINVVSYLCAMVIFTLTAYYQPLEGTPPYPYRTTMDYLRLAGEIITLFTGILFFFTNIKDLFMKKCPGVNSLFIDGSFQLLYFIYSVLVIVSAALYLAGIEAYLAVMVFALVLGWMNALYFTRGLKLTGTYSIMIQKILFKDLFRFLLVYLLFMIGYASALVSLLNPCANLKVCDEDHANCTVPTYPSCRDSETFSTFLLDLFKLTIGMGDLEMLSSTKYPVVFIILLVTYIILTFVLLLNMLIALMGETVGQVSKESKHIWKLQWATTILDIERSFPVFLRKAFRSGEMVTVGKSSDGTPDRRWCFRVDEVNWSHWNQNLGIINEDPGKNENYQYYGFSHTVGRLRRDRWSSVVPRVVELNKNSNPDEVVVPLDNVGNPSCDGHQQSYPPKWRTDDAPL
- assayMethodText: Ca2+ influx in bovine articular chondrocytes (FlexStation)
- Type: cell-based
- conditionParameters: bovine articular chondrocytes; read-out: BAC EC50
Parameter: EC50. Scope: all listed entries.

compound="CC(C)C[C@H](NC(=O)c1cc2ccccc2s1)C(=O)NCCCN(C)S(=O)(=O)c1ccc(Cl)cc1Cl [Formula IIIc]" testsystem="TRPV4 channel receptor (Bos taurus, UniProt A0A8F4X677)" observedmeasurement="310 nM"

Now let's try a different one.
Form field EC50, entry CC(C)C[C@H](NC(=O)c1cc2ccccc2s1)C(=O)NCCCN(C)S(=O)(=O)c1ccccc1C#N [Formula IIIb] : 260 nM

----------
Recorded pEC50 for the following molecules
- testSystem: TRPV4 channel receptor (Homo sapiens)
- assayMethodText: FLIPR assay
- Type: cell-based
pEC50 is a log-scale quantity: -log10 of the concentration expressed in molar.

structuresmilesstring=CC(C)C[C@H](NC(=O)c1cc2ccccc2s1)C(=O)NCCCN(C)S(=O)(=O)c1ccc(Cl)cc1Cl testsystem="TRPV4 channel receptor (Homo sapiens)" observedmeasurement=6.43

Kindly consider the entry below.
Note to self: pEC50 of CC(C)C[C@H](NC(=O)c1cc2ccccc2s1)C(=O)NCCCN(C)S(=O)(=O)c1ccccc1C#N with TRPV4 channel receptor (Homo sapiens) was 6.15

----------
- System: aggrecanase
- assayMethodText: IL-1 induced aggrecanase production, chondrocyte-based aggrecanase peptide cleavage assay
- Format: cell-based, bovine
measuredAttribute: pIC50
Note on units: pIC50 is unitless, being -log10 of a concentration expressed in mol/L.

Item CC(C)C[C@H](NC(=O)c1cc2ccccc2s1)C(=O)NCCCN(C)S(=O)(=O)c1ccccc1C#N [Formula IIIb] was tested on aggrecanase; the reported pIC50 is 6.46
